Experiment: Passive artificial membrane permeability (PAMPA)
Details: 50 μM, 12–18 h; acceptor concentration relative to equilibrium
// assign true (1) if PAMPA permeability: % permeability falls strictly below 50%, else false (0) (ties count as false (0))

Example cases with answers are listed next.
| Compound | Assigned Label |
| --- | --- |
| O=C1NCCSCc2cccc(n2)CSCCC(=O)N2CCC[C@H]2C(=O)N2CCN(C(=O)c3ccc(Cl)s3)CC12 (stereo partly drawn) | false (0) |
| O=C1C[C@H]2CCCN2C(=O)[C@H](Cc2ccccn2)NC(=O)[C@@H](NC(=O)c2ccc(Cl)s2)CSCCS(=O)(=O)CCSCCN1 | true (1) |
| O=C1C[C@H]2CCCN2C(=O)[C@H](Cc2ccccc2)NC(=O)[C@@H](NC(=O)c2ccc(Cl)s2)CCCC=CCCCCN1 | true (1) |
| O=C1C[C@H]2CCCN2C(=O)[C@H](Cc2ccccc2)NC(=O)[C@@H](NC(=O)c2ccc(Cl)s2)CCSCc2cccc(n2)CSCCN1 | true (1) |
| O=C1CCSCc2cccc(n2)CSCCNC(=O)[C@H](CO)NC(=O)[C@@H](NC(=O)c2ccc(Cl)s2)CN1 | true (1) |

Read the next record carefully.
## Task Just wondering, is PAMPA permeability: % permeability of C[C@]12CC[C@H]3[C@@H](CCC4=CC(=O)CC[C@@]43C)[C@@H]1CC[C@@H]2O [Testosterone, reference compound] below 50%?
## Result false (0)

* * *

# Lookup of reported microsomal CLint keyed by entry
Experiment: Metabolic stability in rat liver microsomes (RLMs)
Details: rat, microsomes, CL (ul/min/mg protein) R2, RLM CL; replicate R2
Enter your answer as a number in µL/min/mg; do not include the unit.

Some compounds with recorded microsomal CLint:
| Compound | microsomal CLint [µL/min/mg] |
| --- | --- |
| O=C(N[C@H]1CSCc2cccc(n2)CSCCNC(=O)[C@H](Cc2c[nH]cn2)NC(=O)C2(CCCC2)NC1=O)c1ccc(Cl)s1 [compound 29] | 5.63 |
| C[C@@H]1NC(=O)[C@@H](NC(=O)c2ccc(Cl)s2)CNC(=O)CCSCc2cccc(n2)CSCCNC1=O [compound 18] | 96.6 |

## Task Return reported microsomal CLint; argument: O=C1NCCSCc2cccc(n2)CSC[C@H](NC(=O)c2ccc(Cl)s2)C(=O)N[C@@H](CO)C(=O)NCc2cccc1c2 [compound 27]
## Result 57.4

## Task Which microsomal CLint is listed for O=C1CC2CCN(CC2)C(=O)[C@H](Cc2ccccc2)NC(=O)[C@@H](NC(=O)c2ccc(Cl)s2)CSCCS(=O)(=O)CCSCCN1 [compound 13] ?
## Result 117

## Task // query microsomal CLint value for entry O=C1NCCSCc2cccc(n2)CSC[C@H](NC(=O)c2ccc(Cl)s2)C(=O)N[C@@H](CO)C(=O)NCc2ccc1cc2 [compound 25]
## Result 76.5

## Task Name the reported microsomal CLint value associated with the compound O=C1C[C@H]2CCCN2C(=O)[C@H](Cc2ccccn2)NC(=O)[C@@H](NC(=O)c2ccc(Cl)s2)CSCCS(=O)(=O)CCSCCN1 [compound 12]
## Result 68.8

* * *

Molecular target: T1, porcine pepsin (Sus scrofa, UniProt P00791)
T1 construct: 0.32 g of porcine pepsin (Sigma-Aldrich, P7125) was dissolved under gentle agitation; purchased Sigma-Aldrich P7125
T1 sequence (P00791 60-385): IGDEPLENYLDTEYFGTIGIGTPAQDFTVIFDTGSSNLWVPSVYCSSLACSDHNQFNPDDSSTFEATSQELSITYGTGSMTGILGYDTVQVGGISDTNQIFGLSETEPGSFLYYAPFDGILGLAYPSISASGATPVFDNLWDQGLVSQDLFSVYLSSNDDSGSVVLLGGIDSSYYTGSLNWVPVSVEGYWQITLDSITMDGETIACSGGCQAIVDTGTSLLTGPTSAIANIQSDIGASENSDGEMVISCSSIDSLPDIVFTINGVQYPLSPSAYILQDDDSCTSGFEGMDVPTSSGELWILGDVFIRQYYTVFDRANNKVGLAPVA
Assay: Peptide stability in simulated gastric fluid (SGF)
Assay type: in vitro ADME
Settings: simulated gi fluid; 8 h, 37 °C, pH 1.2; read-out: Proteolytic stability: SGF (8 h) % remaining
Protocol: Simulated gastric and intestinal fluids were prepared according to the States Pharmacopeia specifications (Test Solutions, United States Pharmacopeia 35, NF 30, 2012). SGF: 0.2 g of sodium chloride was dissolved in 50 ml of water, and the pH was adjusted to 1.2 by addition of 0.7 ml of 10 M hydrochloric acid. […] Supernatant was analyzed by LC–MS to measure the peptide concentrations at the different timepoints. Residual peptide was calculated by normalizing the concentrations measured at T1 to T0.
Reported Metric: remaining at 8 h (%)
Response body: numeric value in %, unit text excluded.

Solved entries (count: 3):
| Compound | Assay System | remaining at 8 h (%) |
| --- | --- | --- |
| O=C(N[C@H]1CSCc2cccc(n2)CSCCNC(=O)[C@H](Cc2c[nH]cn2)NC(=O)C2(CCCC2)NC1=O)c1ccc(Cl)s1 | T1, porcine pepsin (Sus scrofa, UniProt P00791) | 101 |
| O=C(N[C@H]1CSCc2cccc(n2)CSCCNC(=O)[C@H](Cc2ccccn2)NC(=O)C2(CCCC2)NC1=O)c1ccc(Cl)s1 | T1, porcine pepsin (Sus scrofa, UniProt P00791) | 95 |
| O=C1CCSCc2cccc(n2)CSCCNC(=O)[C@H](CO)NC(=O)[C@@H](NC(=O)c2ccc(Cl)s2)CN1 | T1, porcine pepsin (Sus scrofa, UniProt P00791) | 98 |

## Task Which measured remaining at 8 h value corresponds to O=C1C[C@H]2CCCN2C(=O)[C@H](Cc2ccccn2)NC(=O)[C@@H](NC(=O)c2ccc(Cl)s2)CSCCS(=O)(=O)CCSCCN1 ?
## Result 99

## Task Give the measured remaining at 8 h of O=C1C[C@H]2CCCN2C(=O)[C@H](Cc2ccccc2)NC(=O)[C@@H](NC(=O)c2ccc(Cl)s2)CSCCS(=O)(=O)CCSCCN1 [peptide 11] .
## Result 36

## Task Tell me the measured remaining at 8 h of O=C1CCSCc2cccc(n2)CSCCNC(=O)C2CN(C(=O)c3ccc(Cl)s3)CCN2C(=O)[C@H](CO)N1 (some centres unmarked) , please.
## Result 99

## Task I would be grateful if you could share the reported remaining at 8 h for O=C(N[C@H]1CSCCS(=O)(=O)CCSCCNC(=O)C2(CC2)CNC(=O)[C@H](Cc2ccccc2)NC1=O)c1ccc(Cl)s1 .
## Result 99

## Task # input compound: O=C1C[C@H]2CCCN2C(=O)[C@H](Cc2ccccc2)NC(=O)[C@@H](NC(=O)c2ccc(Cl)s2)CSCc2cccc(n2)CSCCN1 ; wanted: its remaining at 8 h
## Result 92
